measured-on: VEGFR-2 (Homo sapiens, UniProt P35968)
Sequence (P35968 20-1356): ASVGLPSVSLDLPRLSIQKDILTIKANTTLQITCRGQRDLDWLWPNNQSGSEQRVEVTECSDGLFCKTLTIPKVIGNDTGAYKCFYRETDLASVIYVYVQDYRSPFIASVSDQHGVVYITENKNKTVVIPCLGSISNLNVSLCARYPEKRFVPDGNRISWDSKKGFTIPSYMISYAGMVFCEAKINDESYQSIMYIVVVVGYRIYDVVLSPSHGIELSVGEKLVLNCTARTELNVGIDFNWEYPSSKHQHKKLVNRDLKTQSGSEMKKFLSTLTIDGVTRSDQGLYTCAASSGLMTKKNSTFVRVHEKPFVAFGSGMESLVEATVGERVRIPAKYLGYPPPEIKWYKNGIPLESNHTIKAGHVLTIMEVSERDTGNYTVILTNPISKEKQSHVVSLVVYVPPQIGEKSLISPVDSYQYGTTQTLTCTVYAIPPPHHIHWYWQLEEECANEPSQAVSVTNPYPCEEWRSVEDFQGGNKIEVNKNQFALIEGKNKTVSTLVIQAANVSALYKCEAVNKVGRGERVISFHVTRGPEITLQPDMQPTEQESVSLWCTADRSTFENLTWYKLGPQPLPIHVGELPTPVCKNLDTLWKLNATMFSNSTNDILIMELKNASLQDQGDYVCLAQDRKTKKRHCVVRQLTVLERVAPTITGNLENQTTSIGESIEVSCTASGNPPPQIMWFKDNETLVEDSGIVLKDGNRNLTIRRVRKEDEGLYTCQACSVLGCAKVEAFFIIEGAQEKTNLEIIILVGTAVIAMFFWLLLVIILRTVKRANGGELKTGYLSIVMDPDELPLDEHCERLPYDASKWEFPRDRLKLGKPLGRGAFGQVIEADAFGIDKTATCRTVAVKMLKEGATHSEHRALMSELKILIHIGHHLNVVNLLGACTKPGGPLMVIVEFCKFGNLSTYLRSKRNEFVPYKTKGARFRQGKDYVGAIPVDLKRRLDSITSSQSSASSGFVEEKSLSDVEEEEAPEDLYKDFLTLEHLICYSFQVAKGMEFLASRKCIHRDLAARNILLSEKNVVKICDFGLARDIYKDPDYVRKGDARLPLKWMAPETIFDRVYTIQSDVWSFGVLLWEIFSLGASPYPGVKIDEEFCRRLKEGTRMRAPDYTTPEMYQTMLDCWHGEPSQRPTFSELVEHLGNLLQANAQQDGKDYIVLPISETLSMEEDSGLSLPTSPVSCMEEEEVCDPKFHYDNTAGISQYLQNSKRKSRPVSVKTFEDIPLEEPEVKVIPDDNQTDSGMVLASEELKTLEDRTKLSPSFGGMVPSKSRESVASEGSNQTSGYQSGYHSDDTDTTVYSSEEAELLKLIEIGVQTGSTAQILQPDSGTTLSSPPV
recorded-endpoint: pIC50
Give bare numbers, as −log10 of the molar value.

Problem: Item under review: O=C1Nc2ccccc2C1=C1Nc2ccccc2C1=NOCC(O)CO (stereo not shown) . Reported pIC50?
Solution: 6.02
